Measured values drawn from patent US20120094909A1 for this set.

assayedSystem: human PCSK9 (proprotein convertase subtilisin kexin type 9) (human, UniProt Q8NBP7 31-692)
Sequence (Q8NBP7 31-692 limits assumed): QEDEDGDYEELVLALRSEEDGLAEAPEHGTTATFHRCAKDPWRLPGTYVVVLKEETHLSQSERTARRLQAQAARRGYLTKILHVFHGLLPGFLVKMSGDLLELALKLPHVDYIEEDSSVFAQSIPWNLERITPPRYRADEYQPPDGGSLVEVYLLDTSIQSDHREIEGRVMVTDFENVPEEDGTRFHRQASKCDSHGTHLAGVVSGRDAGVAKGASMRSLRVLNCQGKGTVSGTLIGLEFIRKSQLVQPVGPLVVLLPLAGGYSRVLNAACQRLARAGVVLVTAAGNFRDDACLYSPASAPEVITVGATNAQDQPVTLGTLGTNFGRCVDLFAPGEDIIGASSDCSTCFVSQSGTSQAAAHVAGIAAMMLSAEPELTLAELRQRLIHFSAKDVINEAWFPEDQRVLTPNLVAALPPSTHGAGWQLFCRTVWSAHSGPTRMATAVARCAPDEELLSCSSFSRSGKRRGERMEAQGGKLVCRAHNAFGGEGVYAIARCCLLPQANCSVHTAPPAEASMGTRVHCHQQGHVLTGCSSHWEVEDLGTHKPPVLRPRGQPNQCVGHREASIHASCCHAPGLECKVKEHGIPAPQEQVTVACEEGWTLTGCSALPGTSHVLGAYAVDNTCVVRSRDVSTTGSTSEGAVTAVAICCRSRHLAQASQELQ
testSummary: cell-based or functional assay
observable: LDLR Depletion (% inhibition at 75 nM) (%)

>  <binder>
2381B04 (designed binder) MGVSDVPRDLEVVAATPTSLLISWEPFSRLPGGGEYYRITYGETGGNSPLQQFTVPGSKGTATISGLKPGVDYTITVYAVEYPYEHSGYYHRPISINYRTEIDKPSQHHHHHH

>  <LDLR Depletion (% inhibition at 75 nM), %>
122

$$$$
>  <binder>
2382E05 (designed binder) MGVSDVPRDLEVVAATPTSLLISWDAPAEGGYGYYRITYGETGGNSPVQEFTVPVSKGTATISGLKPGVDYTITVYAVEFDFPGAGYYHRPISINYRTEIDKPSQHHHHHH

>  <LDLR Depletion (% inhibition at 75 nM), %>
104

$$$$
